Reference source for all entries: patent US20110098180A1

SYSTEM_NAME: Hydrilla PDS Arg^304 → Threonine (Hydrilla verticillata, UniProt Q66PY0, R304T)
Sequence (Q66PY0 1-580 R304T): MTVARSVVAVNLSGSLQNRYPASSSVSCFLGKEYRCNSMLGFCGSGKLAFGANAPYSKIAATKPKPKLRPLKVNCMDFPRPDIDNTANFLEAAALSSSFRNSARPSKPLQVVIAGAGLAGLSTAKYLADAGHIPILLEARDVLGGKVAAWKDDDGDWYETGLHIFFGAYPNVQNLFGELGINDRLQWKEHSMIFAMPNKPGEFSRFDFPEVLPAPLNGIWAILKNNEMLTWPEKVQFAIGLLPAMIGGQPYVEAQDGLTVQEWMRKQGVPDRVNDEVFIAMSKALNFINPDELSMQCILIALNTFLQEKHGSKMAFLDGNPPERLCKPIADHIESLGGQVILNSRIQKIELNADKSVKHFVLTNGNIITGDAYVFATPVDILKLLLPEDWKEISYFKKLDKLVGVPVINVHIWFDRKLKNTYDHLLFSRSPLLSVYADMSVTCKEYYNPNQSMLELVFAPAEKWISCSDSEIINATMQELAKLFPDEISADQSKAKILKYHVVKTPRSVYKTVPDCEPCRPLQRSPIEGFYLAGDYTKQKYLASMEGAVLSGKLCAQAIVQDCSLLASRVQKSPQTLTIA
ASSAY_SUMMARY: Cross resistance to bleaching herbicides, in vitro PDS inhibition, non-His-tagged (Table 2)
Type: biochemical
ASSAY_SETUP: Threonine at 304; construct in frame with LacZalpha-ccdB, non-His-tagged; read-out: I50
pIC50: −log10 of the molar value.
Short version: pIC50 at least 5 is Criterion met, less is Criterion not met.

// inclusive: pIC50 at least 5? input: `O=C(Nc1ccc(F)cc1F)c1cccnc1Oc1cccc(C(F)(F)F)c1`
Criterion met

Could you do the same for `CNc1cnn(-c2cccc(C(F)(F)F)c2)c(=O)c1Cl` , please?
Criterion not met

Could you do the same for O=C1C(Cl)C(CCl)CN1c1cccc(C(F)(F)F)c1 (stereo not drawn) , please?
Criterion not met

Could you do the same for `O=C(Nc1ccc(F)cc1)c1cccc(Oc2cccc(C(F)(F)F)c2)n1` , please?
Criterion met

Could you do the same for CCC(Oc1ccc(F)c(C(F)(F)F)c1)C(=O)NCc1ccccc1 (stereo not drawn) , please?
Criterion met

---

SYSTEM_NAME: hydrilla PDS Arg^304 → Threonine, His-tagged (Hydrilla verticillata, UniProt Q66PY0, R304T)
ASSAY_SUMMARY: Cross-resistance testing, His-tagged column-purified PDS (Table 2A)
Assay type: biochemical
ASSAY_SETUP: Threonine at 304; His-tagged, column-purified PDS; read-out: I50
Cut-off 200 µM on IC50: below means MET, at or above means NOT MET.

Does O=C1C(Cl)C(CCl)CN1c1cccc(C(F)(F)F)c1 (stereo not drawn) [Fluorochloridone] have IC50 strictly under 200 µM?
NOT MET

Could you do the same for CCC(Oc1ccc(F)c(C(F)(F)F)c1)C(=O)NCc1ccccc1 (stereo not drawn) [Beflubutamid] , please?
MET

Could you do the same for CNC1=C(c2cccc(C(F)(F)F)c2)C(=O)C(c2ccccc2)O1 (stereo not drawn) [Flurtamone] , please?
NOT MET

Could you do the same for O=C(Nc1ccc(F)cc1)c1cccc(Oc2cccc(C(F)(F)F)c2)n1 [Piconilafen, Picolinafen] , please?
MET

Could you do the same for O=C(Nc1ccc(F)cc1F)c1cccnc1Oc1cccc(C(F)(F)F)c1 [Diflufenican] , please?
MET

Could you do the same for CNc1cnn(-c2cccc(C(F)(F)F)c2)c(=O)c1Cl [Norflurazon] , please?
NOT MET
